- System: anti-M2 human monoclonal antibody Z3G1
- Type: binding
measureName: Signal (peptides that bind to Z3G1)
Give bare numbers.

Query: Request the reported Signal (peptides that bind to Z3G1) associated with 1292 (MSLLREVETPIRNEWGCRCN; epitope peptide) [compound 1292]
Response: 2699

# input for lookup
Query: Which Signal (peptides that bind to Z3G1) is listed for 1482 (CETPIRNEWGLLTEVETPICEVETPIRNE; epitope peptide; MISC_FEATURE (1)..(1): C is an attachment site for a CLIP; MISC_FEATURE (10)..(10): G is an attachment site for a CLIP; MISC_FEATURE (11)..(11): L is an attachment site for a CLIP; MISC_FEATURE (29)..(29): E is an attachment site for a CLIP) [compound 1482] ?
Response: 1648

====

- Tested on: anti-M2 human monoclonal antibody Z3G1
- Assay type: binding
I'd appreciate it if you could supply Signal (peptides that bind to Z3G1) values for the items below.
Answers are plain numbers.

Query: Looking for the measured Signal (peptides that bind to Z3G1) of 397 (SLLTEVETPIRNEWGCRCNQSSD; epitope peptide) [compound 397] , can you help?
Response: 2376

Provide the reported Signal (peptides that bind to Z3G1) of each entry below, same order.
1. 436 (SLLTEVETPI; epitope peptide) [compound 436]
2. 1369 (SLLTEVETPCRCE; epitope peptide) [compound 1369]
3. 368 (SLLTEVETPIRNEWG; epitope peptide) [compound 368]
4. 1326 (MSLLCEVETPIRCE; epitope peptide) [compound 1326]
5. 1282 (MSLLFEVETPIRNEWGCRCN; epitope peptide) [compound 1282]
6. 1440 (CTEVETPIRNSLLTEVETPCLTEVETPIR; epitope peptide; MISC_FEATURE (1)..(1): C is an attachment site for a CLIP; MISC_FEATURE (10)..(10): N is an attachment site for a CLIP; MISC_FEATURE (11)..(11): S is an attachment site for a CLIP; MISC_FEATURE (29)..(29): R is an attachment site for a CLIP) [compound 1440]

Response:
1: 2465; 2: 1546; 3: 2429; 4: 2772; 5: 2581; 6: 2705

====

- Tested on: anti-M2 human monoclonal antibody Z3G1
- Format: binding
Please go through the items and note down their Signal (peptides that bind to Z3G1).
Numbers only.

Answered cases to consult:
Query: I'd like to know its Signal (peptides that bind to Z3G1). The substance in question is 401 (SLLTEVETPIRNEWGCRCNWSSD; epitope peptide) [compound 401]
Response: 2556

Query: Try this substance too: 1480 (CEVETPIRNELLTEVETPICEVETPIRNE; epitope peptide; MISC_FEATURE (1)..(1): C is an attachment site for a CLIP; MISC_FEATURE (10)..(10): E is an attachment site for a CLIP; MISC_FEATURE (11)..(11): L is an attachment site for a CLIP; MISC_FEATURE (29)..(29): E is an attachment site for a CLIP) [compound 1480]
Response: 1394

Query: Now consider 286 (CSLLTEVGMSLLTCV; epitope peptide) [compound 286] .
Response: 2768

Quick request: Signal (peptides that bind to Z3G1) for each listed item, please.
1. 476 (CSLLTEVGCSCLCEV; epitope peptide) [compound 476]
2. 1301 (MSLLTEVFTPIRNEWGCRCN; epitope peptide) [compound 1301]
3. 433 (SLLTEVETPIRNEWGCRCNDSWD; epitope peptide) [compound 433]

Response:
1. 1680
2. 1858
3. 2477

Every entry's value here was drawn from patent US8932597B2.
